# test.system: T1, PARD3B_1, Q8TEW8
# T1 sequence (Q8TEW8 196-299, limits assumed, looked up): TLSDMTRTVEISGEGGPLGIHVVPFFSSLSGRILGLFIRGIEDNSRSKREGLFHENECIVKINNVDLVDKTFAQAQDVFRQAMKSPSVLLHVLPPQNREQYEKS
# measurement.notes: holdup assay
# Set-up: key: below the threshold = too weak to quantify, mostly under pKd 3.1 to 4
# conditions: plain residues with an end cap or a label only (N-terminal biotin on a linker: ado-ado)
assay.metric: pKd

> print(dat)
                         binder  value.reported
1      KSRVAFFEEL [NF2, P35240]            3.83
2  PTPDLPQTRV [KLHDC7A, Q5VTJ3]            3.72
3  EDPRVEVTQF [SLC22A9, Q8IVM8]            4.26
4   AAVENKVTDL [PLXNB1, O43157]            3.54
